- Experiment: in vitro
- Particulars: human, hela cells, % viability
Reported Property: viability at 28.5 h, 10 µM (%)
State the answer as a number, implicitly in %.

- Compound: "Cc1cc(C(=O)NCc2cccnc2N(C)C2CCCCC2)nn1C"
  viability at 28.5 h, 10 µM (%): 69.6
- Compound: "Cc1ccccc1Nc1nc(N)nc(CN2CC(C)OC(C)C2)n1 (stereo not shown)"
  viability at 28.5 h, 10 µM (%): 105
- Compound: "NC(=O)c1nnc2ccc(Cl)cc2c1N"
  viability at 28.5 h, 10 µM (%): 89.9
- Compound: "CCOc1ccccc1NC(=O)CC1Sc2ccc(C(F)(F)F)cc2NC1=O (stereo not shown)"
  viability at 28.5 h, 10 µM (%): 95.6
- Compound: "CC(C)(C)NC(=O)CN1C(=O)N2CCCN=C2c2ccccc21"
  viability at 28.5 h, 10 µM (%): 89.7

Exam item: Need viability at 28.5 h, 10 µM, item "Nc1cc2cccnc2c(-c2ccc(OC(F)(F)F)cc2)n1"
Marked response: 90

Exam item: Then what about the compound CC(=O)Nc1ccc(-c2ccc(C(=O)NCC3COc4ccccc4O3)cn2)cc1 (stereo not shown) ?
Marked response: 99.3

Exam item: Would you kindly repeat that for OC(CN1CCN(Cc2ccc3c(c2)OCO3)CC1)C(F)(F)F (stereo not shown) ?
Marked response: 108

Exam item: Follow-up item: O=C(O)C1CCCCC1C(=O)Nc1cccc2ccccc12 (stereo not shown)
Marked response: 101

Exam item: Another compound to check: O=C(O)c1ccc(N2C(=O)CC(N3CCN(Cc4ccc5c(c4)OCO5)CC3)C2=O)cc1 (stereo not shown)
Marked response: 87.1

Exam item: // query: "O=C1COc2ccc(S(=O)(=O)NCc3ccccc3)cc2N1"
Marked response: 93.7

Exam item: Same lookup for "Cc1c(Cc2ccccc2)c(N2CCN(C3c4ccccc4-c4ccccc43)CC2)n2c(nc3ccccc32)c1C#N" , please.
Marked response: 111

Exam item: Same for O=[N+]([O-])c1ccccc1S(=O)(=O)N1CCN(C2CCCCCC2)CC1 [CBK264171G]
Marked response: 95.4

Exam item: Lookup C=CCN1C(=O)C2(Nc3ccccc3C(=O)N2c2ccc(Cl)cc2)c2ccccc21 (stereo not shown)
Marked response: 106

Exam item: Record: "Cc1cc(CN(C)C(=O)Cc2csc(NC(=O)c3ccoc3C)n2)no1"
Marked response: 102

Exam item: Query "Cc1nc(C2CCN(Cc3cccc(F)c3)CC2)ncc1C(=O)Nc1ccc(F)cc1" next
Marked response: 107

###

- Experiment: in vitro
- Particulars: human, hela cells, % viability
Label key: 1.0 means viability at 28.5 h, 10 µM under 90%; 0.0 means viability at 28.5 h, 10 µM of 90% or more.

- Entry Smiles: "CN(c1ccccc1)S(=O)(=O)c1cccc(NC(=O)Cc2csc(-c3ccco3)n2)c1"
  Class: 1.0

Continue with the compound presented below.
Exam item: hey, is viability at 28.5 h, 10 µM for "COc1ccc(NC(=N)Nc2nc(=O)cc(CSc3nc4ccccc4s3)[nH]2)cc1" lower than 90% or not?
Marked response: 0.0

###

- Test system: HeLa
- Particulars: bulk resorufin, single well, 28.5 h, 10 µM, Bulk resorufin fluorescence
The reader will find reported % viability values listed item by item below.
Write down the numeric answer in % and omit the unit.

- Compound: "COc1ccccc1CN1CC2CCCN2C[C@H]1C (stereo partly shown)"
  U: "%"
  % viability: 106
- Compound: "CC(C)(C)c1nc(CN2CCOCC2)ccc1O [CBK026614C]"
  U: "%"
  % viability: 111
- Compound: "O=S(=O)(Nc1ncc(Br)c2cccnc12)c1ccc(-c2ccccc2)cc1"
  U: "%"
  % viability: 110
- Compound: "CC1Cc2ccccc2N1c1ncnc2nc[nH]c12 (stereo not shown)"
  U: "%"
  % viability: 66.9
- Compound: "CC(C)C(=O)N1CCC[C@H]1Cn1nc(-c2cccs2)ccc1=O"
  U: "%"
  % viability: 96.1
- Compound: "CC(C)[C@@H](CO)Nc1nccnc1-c1cccc(C(=O)O)c1"
  U: "%"
  % viability: 93
- Compound: "C[C@H]1CN2CCCC2CN1Cc1c(F)cccc1F (stereo partly shown)"
  U: "%"
  % viability: 102
- Compound: "Fc1ccc(COc2cc(N3CCCC3)ncn2)cc1"
  U: "%"
  % viability: 96.4

Exam item: Returns the measured % viability for the input compound. Input: "O=C(NC1CCCCC1)[C@H]1C=CCN1C(=O)c1ccc(F)cc1"
Marked response: 86.4

Exam item: Another compound to check: "O=C(NCCCN1CCCCC1)/C(=N\O)c1ccccc1"
Marked response: 85.9
